- Tested on: Saccharomyces cerevisiae
- assay-procedure: Antifungal activity against Saccharomyces cerevisiae 1353 assessed as concentration required to generate kill-zone of 12 mm in diameter after 48 hrs

compound: CCCCCCCCCCC1=CC(=O)C=C(OC)C1=O
scale-unit: µg/mL
reported-relation: =
Activity: 380
--
compound: CCCCCCCCCCCCCCCCCCCC1=CC(=O)C=C(OC)C1=O
scale-unit: µg/mL
reported-relation: >
Activity: 2000
--
compound: COC1=CC(=O)C=C(C)C1=O
scale-unit: µg/mL
reported-relation: =
Activity: 830
--
compound: CCC1=CC(=O)C=C(OC)C1=O
scale-unit: µg/mL
reported-relation: =
Activity: 233
--
compound: CCCCC1=CC(=O)C=C(OC)C1=O
scale-unit: µg/mL
reported-relation: =
Activity: 210
--
compound: CCCCC(O)C1=CC(=O)C=C(OC)C1=O (centres undefined)
scale-unit: µg/mL
reported-relation: =
Activity: 577
--
compound: CCCCCCCC1=CC(=O)C=C(OC)C1=O
scale-unit: µg/mL
reported-relation: =
Activity: 220
--
compound: COC1=CC(=O)C=C(Cc2ccccc2)C1=O
scale-unit: µg/mL
reported-relation: =
Activity: 590
--
compound: CCCCCC1=CC(=O)C=C(OC)C1=O
scale-unit: µg/mL
reported-relation: =
Activity: 285

Data credit: ChEMBL document CHEMBL1150214
